Reported IC50 is given for each of the following binders.
Biological target: SARS-CoV-2 Spike-Fc, Alpha (B1.1.7/United Kingdom) variant (SARS-CoV-2), P0DTC2

# binder, IC50, nM
records = [
    ("KTFLDKFNHEAEDLFPGPKWSAFLKEQSTLAQMYG (modifications not checked) [Seq28 (LNCOV-20)]", 24.6),
    ("EQAKTFLDKFNHEAEDLFLWRALWRLWRSLWRLLWK (modifications not checked) [Seq33 (LNCOV-18)]", 17.8),
]
